Data origin: PubChem BioAssay

# Test Protocol: probe aNOTCH3 binding on compound microarray – biochemical, small-molecule microarray, 635/667 nm fluorescence, primary screen (AID 1120);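 note: probe is a biotin-tagged antibody raised against NOTCH3 rather than NOTCH3 protein; score merges spot fluorescence near 667 nm with spot signal to noise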
# Setup Conditions: higher = more signal
composite z-score by entry:
Please state the value as a number alone, without comment.

Give the reported composite z-score for this compound. O=c1c2ccc(Br)cc2nc(-c2ccccc2)n1Cc1cccc(O)c1
0.103

---

# Test Protocol: probe aEGFR binding to arrayed compounds – biochemical, biotinylated probe, 635/667 nm fluorescence, primary screen (AID 1097);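 note: probe is a biotinylated anti-EGFR antibody binding compounds printed on slides; score combines fluorescence near 667 nm and signal to noise of each spot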
# Setup Conditions: small-molecule microarray, higher = more signal
Category | rule: reported composite z-score within range, see zone 1 = under -0.1, zone 2 = from -0.1 up to -0.02, zone 3 = -0.02 and over

Answered cases to consult:
O=C1O[C@@H](c2ccccc2)[C@@H](c2ccccc2)N2[C@@H](c3ccc(O)cc3)[C@]3(C(=O)Nc4ccc(C#CC5(O)CCCCCC5)cc43)[C@@H](C(=O)N3CCN(c4ncccn4)CC3)[C@H]12 :: zone 2
OCCCC1=CC(c2cccs2)N(Cc2cccc(OC(F)(F)F)c2)CC1 (stereo not drawn) :: zone 1
CC(C)N1C(=O)c2ccccc2[C@](C)(C(=O)O)[C@@H]1c1ccc(CO)cc1 :: zone 1
COc1ccccc1CN1C(=O)c2ccccc2[C@@]2(Cc3ccccc3N(C3CC3)C2=O)[C@@H]1c1ccc(CO)cc1 :: zone 1
COC(=O)[C@@]1(Cc2ccc(F)cc2)[C@H]2c3cc(C(=O)N4CCCC4)n(Cc4ccccc4)c3C[C@H]2CN1C(=O)c1ccccc1 :: zone 3

Textbook exercise: identify the category of the molecule given here, O=C1C2C=CC(C(O)c3ccc(Br)cc3)N(Nc3ccccc3)C2C(=O)N1c1ccccc1 (stereo not drawn) , according to its measured value.
zone 3

Which class is correct for the following molecule? COc1ccc(C(=O)Nc2ccc3c(c2)[C@]2(O[C@@H](CCO)[C@H]([Si](C)(C)c4ccc(OC)cc4)[C@H]2C)C(=O)N3Cc2ccccc2)cc1
zone 1

Which band does CCOC(=O)C[C@H]1[C@H](OC(=O)Cc2ccc3c(c2)OCO3)[C@@H](NC(=O)c2ccccc2)c2cc(OCCCO)ccc2N1C(=O)c1ccccc1 fall in?
zone 1

Dear colleague, I would appreciate it if you could identify the bin for C=C(CCCC)/C(=C/C[C@@H](OC(=O)c1ccncc1)c1ccccc1OCCO)c1cc(C(=O)OC)ccc1OC and reply at your convenience.
zone 3

Which category fits this record: COC(=O)[C@@]1(Cc2ccccc2)[C@H]2c3cc(C(=O)N(C)C)n(Cc4ccc(O)c(OC)c4)c3C[C@H]2CN1C(=O)c1ccccc1
zone 3

For this molecule, which bin applies? CC(C)C[C@H]1NC(=O)[C@H](C)NC(=O)[C@@]23C(=O)N[C@@H](Cc4ccccc4)C2[C@H](C)[C@@]2(C)O[C@H]2C3/C=C/C/C=C\CNC1=O (stereo partly drawn)
zone 1

Which composite z-score band matches C=CC[C@]1(C(=O)NCC(O)CO)N=C(c2ccc(OCCCO)cc2)O[C@H]1c1ccccc1N=[N+]=[N-] (stereo partly drawn) ?
zone 1
